In this section we review reported T/C values for a set of compounds.
Test system: MX-1 breast xenograft, nude mice, tumor weight T/C
Assay: NCI In Vivo Anticancer Drug Screen. Data for tumor model Human Mammary Carcinoma MX-1 Xenograft (intrarenal inoculation) in NU/NU Swiss (nude) mice
Details: endpoint: mean tumor weight change; dose: 50.0 mg/kg/injection; schedule: Q01DX010 (sc); vehicle: Klucel (hydroxypropylcellulose) (HPC); higher = larger tumour
Records with an inconclusive call do not appear.
measurement.type: T/C

> print(dat)
                                    compound   endpoint.result
 1          O=[N+]([O-])/C=C\c1ccc2c(c1)OCO2  214 % of control
 2  CS(=O)(=O)OCCN(CCOS(C)(=O)=O)c1ccc(C=Nc2ccc(-c3csc(COc4ccccc4)n3)cc2)cc1   37 % of control
 3  CC(=O)OCc1cc(=O)n(C)c2c3c4c(cc12)c(C)cc(=O)n4CO3  120 % of control
 4  CCCC(=O)OCc1cc(=O)n(C)c2c3c4c(cc12)c(C)cc(=O)n4CO3   20 % of control
 5    CCCCCC[C@H]([C@H](C)O)n1cnc2c(N)ncnc21   43 % of control
 6                COc1ccc(C(N)=O)cc1N=NN(C)C  169 % of control
 7               CN(C)c1nc(N(C)C)nc(N(C)C)n1   21 % of control
 8  CN(Cc1cnc2nc(N)nc(N)c2n1)c1c(Cl)cc(C(=O)NC(CCC(=O)O)C(=O)O)cc1Cl (stereo not given)  -25 % of control
 9  C[C@]12C=CC(=O)C=C1CC[C@@H]1[C@@H]2[C@@H](O)C[C@@]2(C)[C@H]1CC[C@]2(O)C(=O)CO   55 % of control
10  CC(=O)[O][Pb]([O]C(C)=O)([c]1ccccc1)[c]1ccccc1  167 % of control
